The reported measurements were obtained from ChEMBL document CHEMBL3860032.

molecular target: Proteasome Macropain subunit MB1 (Homo sapiens) (UniProt P28074); experiment: Inhibition of chymotrypsin-like activity of human 20S proteasome at 50 uM using Suc-Leu-Leu-Val-Tyr-AMC as substrate measured for 10 mins by fluorescence assay relative to control
Sequence (P28074 whole entry): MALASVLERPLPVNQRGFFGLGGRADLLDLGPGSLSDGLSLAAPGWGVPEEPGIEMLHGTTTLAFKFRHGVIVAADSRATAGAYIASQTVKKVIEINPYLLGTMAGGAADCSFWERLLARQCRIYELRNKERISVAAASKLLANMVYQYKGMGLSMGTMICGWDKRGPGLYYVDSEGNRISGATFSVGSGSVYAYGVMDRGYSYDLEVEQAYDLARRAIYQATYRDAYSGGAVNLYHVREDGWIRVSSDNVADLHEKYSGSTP
Non-standard residues stand in square brackets, D forms with d. Residues, ends and D or L forms follow the SMILES beside them. ξ: configuration not given here. *: point of attachment. Nva = CCC[C@H](N)C(=O)O; Cbz = O=C(OCc1ccccc1)*; ξI = CCC(C)C(N)C(=O)O; ξT = CC(O)C(N)C(=O)O
Classification field: t = inhibition at or over 20%; f = inhibition under 20%.

[[record]]
molecule = "OCC(Oc1ccccc1)C(O)C(O)C(CO)Oc1ccccc1 (centres undefined)"
system_name = "Proteasome Macropain subunit MB1 (Homo sapiens) (UniProt P28074)"
label_class = "f"

[[record]]
molecule = "O=C(O)c1ccc(NCn2c(=S)[nH]c3ccccc32)cc1O"
system_name = "Proteasome Macropain subunit MB1 (Homo sapiens) (UniProt P28074)"
label_class = "t"

[[record]]
molecule = "CCOC(=O)c1ccc(NC(=O)CSc2nc3ccccc3o2)cc1"
system_name = "Proteasome Macropain subunit MB1 (Homo sapiens) (UniProt P28074)"
label_class = "f"

[[record]]
molecule = "COC(=O)[C@H](C)NC(=O)[C@H](CC(C)C)NC(=O)[C@H](Cc1ccccc1)NC(=O)OCc1ccccc1 (Cbz-Phe-Leu-Ala-OMe)"
system_name = "Proteasome Macropain subunit MB1 (Homo sapiens) (UniProt P28074)"
label_class = "t"

[[record]]
molecule = "CCC(C)C(NC(=O)OCc1ccccc1)C(=O)N[C@@H](Cc1ccc(O)cc1)C(=O)O (some centres undefined) (Cbz-[ξI]-Tyr-OH)"
system_name = "Proteasome Macropain subunit MB1 (Homo sapiens) (UniProt P28074)"
label_class = "t"

[[record]]
molecule = "CC(O)C(C=O)NC(=O)CNC(=O)OCc1ccccc1 (stereo not drawn) (Cbz-Gly-[ξT]-aldehyde)"
system_name = "Proteasome Macropain subunit MB1 (Homo sapiens) (UniProt P28074)"
label_class = "t"

[[record]]
molecule = "O=C(O)[C@H](Cc1ccc(O)cc1)NS(=O)(=O)Cc1ccccc1"
system_name = "Proteasome Macropain subunit MB1 (Homo sapiens) (UniProt P28074)"
label_class = "t"

[[record]]
molecule = "O=C(NCc1ccccc1)C(O)C(O)C(O)C(O)CO (centres undefined)"
system_name = "Proteasome Macropain subunit MB1 (Homo sapiens) (UniProt P28074)"
label_class = "f"

[[record]]
molecule = "CCC[C@H](NC(=O)OCc1ccccc1)C(=O)N[C@@H](Cc1ccc(O)cc1)C(N)=O (Cbz-[Nva]-Tyr-NH2)"
system_name = "Proteasome Macropain subunit MB1 (Homo sapiens) (UniProt P28074)"
label_class = "f"

